# assay explanation: Transdermal delivery of melatonin: plasma level of melatonin after applying composition to skin of a subject
# recorded conditions: human, plasma, topical, 3 mg, Plasma level of melatonin, salt of tryptophan isopropyl ester, A− = AcO^−, 228.48 mM, 0.30 mL applied, 2 hr after transdermal administration
property label: concentration at 2 h (ng/mL)

• COc1ccc2[nH]cc(CCNC(C)=O)c2c1 = 2.2

* * *

# assay explanation: Transdermal delivery of melatonin: plasma level of melatonin after applying composition to skin of a subject
# recorded conditions: human, plasma, topical, 3 mg, Plasma level of melatonin, salt of tryptophan isopropyl ester, A− = F^−, 262.85 mM, 0.30 mL applied, 2 hr after transdermal administration
property label: concentration at 2 h (ng/mL)

* COc1ccc2[nH]cc(CCNC(C)=O)c2c1 | 2.8

* * *

# assay explanation: Transdermal delivery of melatonin: plasma level of melatonin after applying composition to skin of a subject
# recorded conditions: human, plasma, topical, 3 mg, Plasma level of melatonin, salt of tryptophan isopropyl ester, A− = I^−, 187.04 mM, 0.30 mL applied, 0 hr after transdermal administration
property label: concentration at 0 h (ng/mL)

• COc1ccc2[nH]cc(CCNC(C)=O)c2c1 [Melatonin] = 0

* * *

# Test system: human skin tissue
# assay explanation: Penetration rate of AI compound in AI-helper composition through human skin in vitro, modified Franz cells
# Format: in vitro ADME
# recorded conditions: no tryptophan ester (None); AI compound 0.5 % w/v in water; 25 °C
The entries below come with measured Skin penetration rate of AI compound values attached.
property label: Skin penetration rate of AI compound (μg/cm^2/h)

* N[C@@H](CCC(=O)N[C@@H](CS)C(=O)NCC(=O)O)C(=O)O [Glutathione] | 0.008
* NCCS(=O)(=O)O [Taurine] | 0.005
* Nc1nc2ncc(CNc3ccc(C(=O)N[C@@H](CCC(=O)O)C(=O)O)cc3)nc2c(=O)[nH]1 [Folic acid] | 0.009
* O=C(O)CCCCC1CCSS1 (stereo not drawn) [Alpha-lipoic acid] | 0.071
* O=C1O[C@H]([C@@H](O)CO)C(O)=C1O [Vitamin C] | 0.007

* * *

# assay explanation: clinical
# recorded conditions: human, plasma, topical, 3 mg
property label: concentration at 8 hr (ng/mL)

• COc1ccc2[nH]cc(CCNC(C)=O)c2c1 [Melatonin] = 1.7

* * *

# assay explanation: Transdermal delivery of melatonin: plasma level of melatonin after applying composition to skin of a subject
# recorded conditions: human, plasma, topical, 3 mg, Plasma level of melatonin, salt of tryptophan isopropyl ester, A− = Br^−, 220.92 mM, 0.30 mL applied, 4 hr after transdermal administration
property label: concentration at 4 h (ng/mL)

- COc1ccc2[nH]cc(CCNC(C)=O)c2c1 [Melatonin]: 2.6

* * *

# assay explanation: Transdermal delivery of melatonin: plasma level of melatonin after applying composition to skin of a subject
# recorded conditions: human, plasma, topical, 3 mg, Plasma level of melatonin, salt of tryptophan isopropyl ester, A− = Benzoate ion, 189.98 mM, 0.30 mL applied, 8 hr after transdermal administration
property label: concentration at 8 h

- COc1ccc2[nH]cc(CCNC(C)=O)c2c1: 1.7 ng/mL

* * *

# assay explanation: Transdermal delivery of melatonin: plasma level of melatonin after applying composition to skin of a subject
# recorded conditions: human, plasma, topical, 3 mg, Plasma level of melatonin, salt of tryptophan isopropyl ester, A− = Cl^−, 247.52 mM, 0.30 mL applied, 2 hr after transdermal administration
property label: concentration at 2 h (ng/mL)

* COc1ccc2[nH]cc(CCNC(C)=O)c2c1 | 2.8

* * *

# assay explanation: Transdermal delivery of melatonin: plasma level of melatonin after applying composition to skin of a subject
# recorded conditions: human, plasma, topical, 3 mg, Plasma level of melatonin, Leucine isopropyl ester hydrochloride 333.76 mM, 0.60 mL applied to skin, 0 hr after transdermal administration
property label: concentration at 0 h (ng/mL)

• COc1ccc2[nH]cc(CCNC(C)=O)c2c1 [Melatonin] = 0

* * *

# assay explanation: Transdermal delivery of melatonin: plasma level of melatonin after applying composition to skin of a subject
# recorded conditions: human, plasma, topical, 3 mg, Plasma level of melatonin, Tyrosine pentyl ester 243.25 mM, 0.30 mL applied to skin, 0 hr after transdermal administration
property label: concentration at 0 hr (ng/mL)

* COc1ccc2[nH]cc(CCNC(C)=O)c2c1 | 0

* * *

# assay explanation: Transdermal delivery of melatonin: plasma level of melatonin after applying composition to skin of a subject
# recorded conditions: human, plasma, topical, Plasma level of melatonin, salt of tyrosine isopropyl ester, A− = F^−, 287.91 mM, 0.30 mL applied, 8 hr after transdermal administration
property label: concentration at 8 h (ng/mL)

* COc1ccc2[nH]cc(CCNC(C)=O)c2c1 | 2.5

* * *

# assay explanation: Transdermal delivery of melatonin: plasma level of melatonin after applying composition to skin of a subject
# recorded conditions: human, plasma, topical, 3 mg, Plasma level of melatonin, salt of tryptophan isopropyl ester, A− = Citrate ion, 159.67 mM, 0.30 mL applied, 2 hr after transdermal administration
property label: concentration at 2 h (ng/mL)

• COc1ccc2[nH]cc(CCNC(C)=O)c2c1 = 2.3

* * *

# assay explanation: Transdermal delivery of melatonin: plasma level of melatonin after applying composition to skin of a subject
# recorded conditions: human, plasma, topical, 3 mg, Plasma level of melatonin, Tryptophan ethyl ester hydrochloride 260.47 mM, 0.3 mL applied to skin, 8 hr after transdermal administration
property label: concentration at 8 h (ng/mL)

* COc1ccc2[nH]cc(CCNC(C)=O)c2c1 [Melatonin] | 1.8

* * *

# assay explanation: Transdermal delivery of melatonin: plasma level of melatonin after applying composition to skin of a subject
# recorded conditions: human, plasma, topical, Plasma level of melatonin, Proline isopropyl ester hydrochloride 361.41 mM, 0.60 mL applied to skin, 8 hr after transdermal administration
property label: concentration at 8 h (ng/mL)

• COc1ccc2[nH]cc(CCNC(C)=O)c2c1 = 1.4

* * *

# assay explanation: Transdermal delivery of melatonin: plasma level of melatonin after applying composition to skin of a subject
# recorded conditions: human, plasma, topical, 0.3 mL of 1% melatonin in water, Plasma level of melatonin, salt of tyrosine isopropyl ester, A− = Benzoate ion, 202.65 mM, 0.30 mL applied, 8 hr after transdermal administration
property label: concentration at 8 h (ng/mL)

- COc1ccc2[nH]cc(CCNC(C)=O)c2c1: 1.7

* * *

# assay explanation: Transdermal delivery of melatonin: plasma level of melatonin after applying composition to skin of a subject
# recorded conditions: human, plasma, topical, 0.3 mL of 1% melatonin in water, Plasma level of melatonin, salt of tyrosine isopropyl ester, A− = Lactate ion, 221.97 mM, 0.30 mL applied, 4 hr after transdermal administration
property label: concentration at 4 h

• COc1ccc2[nH]cc(CCNC(C)=O)c2c1 = 2 ng/mL

* * *

# assay explanation: clinical
# recorded conditions: human, plasma, topical, 3 mg
property label: concentration at 1 h (ng/mL)

* COc1ccc2[nH]cc(CCNC(C)=O)c2c1 | 1.4

* * *

# assay explanation: Transdermal delivery of melatonin: plasma level of melatonin after applying composition to skin of a subject
# recorded conditions: human, plasma, topical, Plasma level of melatonin, salt of tyrosine isopropyl ester, A− = Br^−, 230.16 mM, 0.30 mL applied, 0 hr after transdermal administration
property label: concentration at 0 h (ng/mL)

• COc1ccc2[nH]cc(CCNC(C)=O)c2c1 = 0

* * *

# assay explanation: Transdermal delivery of melatonin: plasma level of melatonin after applying composition to skin of a subject
# recorded conditions: human, plasma, topical, 3 mg, Plasma level of melatonin, Tyrosine isopropyl ester 269.50 mM, 0.30 mL applied to skin, 4 hr after transdermal administration
property label: concentration at 4 hr (ng/mL)

• COc1ccc2[nH]cc(CCNC(C)=O)c2c1 = 2.7

* * *

# assay explanation: Transdermal delivery of melatonin: plasma level of melatonin after applying composition to skin of a subject
# recorded conditions: human, plasma, topical, 3 mg, Plasma level of melatonin, Tryptophan isopropyl ester hydrochloride 247.52 mM, 0.3 mL applied to skin, 4 hr after transdermal administration
property label: concentration at 4 h

* COc1ccc2[nH]cc(CCNC(C)=O)c2c1 | 2.7 ng/mL

* * *

# assay explanation: Transdermal delivery of melatonin: plasma level of melatonin after applying composition to skin of a subject
# recorded conditions: human, plasma, topical, 3 mg, Plasma level of melatonin, Leucine isopropyl ester hydrochloride 333.76 mM, 0.60 mL applied to skin, 4 hr after transdermal administration
property label: concentration at 4 h (ng/mL)

- COc1ccc2[nH]cc(CCNC(C)=O)c2c1 [Melatonin]: 1.9

* * *

# assay explanation: Transdermal delivery of melatonin: plasma level of melatonin after applying composition to skin of a subject
# recorded conditions: human, plasma, topical, 3 mg, Plasma level of melatonin, salt of tryptophan isopropyl ester, A− = Lactate ion, 208.11 mM, 0.30 mL applied, 1 hr after transdermal administration
property label: concentration at 1 h (ng/mL)

* COc1ccc2[nH]cc(CCNC(C)=O)c2c1 [Melatonin] | 1.9
